Test system: Bovine cardiac myofibrils
Test: Dose-dependent myofibril ATPase modulation (calcium-buffered, pyruvate kinase and lactate dehydrogenase-coupled ATPase assay at pCa25)
Type: biochemical
Settings: concentration at which ATPase activity was 1.4-fold higher than the bottom of the dose curve, mean of a minimum of two independent tests
Description: In Vitro Model of Dose-Dependent Myofibril ATPase Modulation Dose responses were measured using a calcium-buffered, pyruvate kinase and lactate dehydrogenase-coupled ATPase assay containing the following reagents (concentrations expressed are final assay concentrations): Potassium PIPES (12 mM), MgCl2 (2 mM), ATP (1 mM), DTT (1 mM), BSA (0.1 mg/ml), NADH (0.5 mM), PEP (1.5 mM), pyruvate kinase (4 U/ml), lactate dehydrogenase (8 U/ml), and antifoam (90 ppm). […]
endpoint.label: AC1.4 (µM)

CNc1cc2c(cc1S(=O)(=O)N[C@H]1C[C@@H](Nc3ccccc3)C1)c(=O)[nH]c(=O)n2C : 0.6931
Cc1[nH]c(S(=O)(=O)N[C@@H]2Cc3cc(F)c(Cl)cc3C2)cc1C(=O)N1CC2(COC2)C1 : 1.218
Cc1[nH]c(S(=O)(=O)N[C@@H]2CCc3c([nH]c4ccccc34)C2)cc1C(=O)N1CC(C)(C)C1 : 0.0608

I = Cc1[nH]c(S(=O)(=O)N[C@@H]2CCc3c([nH]c4ccccc34)C2)cc1C(N)=O
II = Cc1[nH]c(S(=O)(=O)N[C@@H]2Cc3cc(Cl)c(Cl)cc3[C@@]2(C)O)cc1C(=O)N1CC(C)(C#N)C1
III = Cc1[nH]c(S(=O)(=O)N[C@@H]2CCc3c([nH]c4ccccc34)C2)cc1C(=O)N1CC(F)(F)C1
IV = Cc1[nH]c(S(=O)(=O)N[C@@H]2Cc3cc(F)c(Cl)cc3C2)cc1C(=O)N1CC(C)(O)C1
V = Cc1[nH]c(S(=O)(=O)N[C@@H]2COc3cc(Cl)ccc3C2)cc1C(=O)N1CC(C)(C#N)C1
stdin: Output the entries ranked by AC1.4 from maximum down to minimum. # list labels per requested ordering
stdout: I, IV, II, V, III

###

test system: Bovine cardiac myofibrils; assay: Dose-dependent myofibril ATPase modulation (calcium-buffered, pyruvate kinase and lactate dehydrogenase-coupled ATPase assay at pCa25); type: biochemical; conditions: concentration at which ATPase activity was 1.4-fold higher than the bottom of the dose curve, mean of a minimum of two independent tests
endpoint.label: AC1.4 (µM)

Known results for compounds:
CNc1cc2c(cc1S(=O)(=O)N[C@H]1C[C@H](c3cc(C(F)(F)F)ccn3)C1)c(=O)[nH]c(=O)n2C [Compound 60] : 2.062
Cc1[nH]c(S(=O)(=O)NC2Cc3cc(Cl)c(Cl)cc3C2)cc1C(=O)N1CC(C)(C#N)C1 [Compound 79] : 0.0599
Cc1cnc(-c2cc(S(=O)(=O)N[C@H]3C[C@H](n4cc(C(F)(F)F)c(C)n4)C3)[nH]c2C)o1 [Compound 66] : 1.1207
CNc1cc2c(cc1S(=O)(=O)N[C@H]1CC[C@H](c3ccccc3)CC1)c(=O)[nH]c(=O)n2C [Compound 12] : 1.6528
Cc1[nH]c(S(=O)(=O)N[C@@H]2CCc3c([nH]c4ccccc34)C2)cc1C(=O)N1CC(C)(C#N)C1 [Compound 48] : 0.04675
C[C@@H]1C[C@@H](C)CN(c2ccc(NS(=O)(=O)c3ccc(N(C)C)c(C#N)c3)cn2)C1 (racemic) [Compound 2] : 12.21
CNc1cc2nc(C)[nH]c(=O)c2cc1S(=O)(=O)NC1CC(c2cccc(F)c2)C1 (centres unmarked) [Compound 24] : 5.6964
Cc1[nH]c(S(=O)(=O)NC2CCc3c([nH]c4ccccc34)C2)cc1C(=O)N(C)C (centres unmarked) [Compound 36] : 6.922
Cc1[nH]c(S(=O)(=O)N[C@@H]2CCc3cc(Cl)ccc3C2)cc1C(=O)N1CC(C)(C#N)C1 [Compound 67] : 0.05605
Cc1[nH]c(S(=O)(=O)N[C@@H]2CCc3c([nH]c4ccccc34)C2)cc1C(=O)N1CCC1 [Compound 41] : 0.2434

A = Cc1[nH]c(S(=O)(=O)N[C@H]2Cc3cc(Cl)c(Cl)cc3[C@@]2(C)O)cc1C(=O)N1CC(C)(C#N)C1 (single isomer, unassigned) [Compound 92]
B = Cc1[nH]c(S(=O)(=O)N[C@]2(Cc3ccc(Cl)cc3)CCOC2)cc1C(=O)N1CC(F)(F)C1 [Compound 64]
C = Cc1[nH]c(S(=O)(=O)N[C@@H]2CCc3c([nH]c4ccccc34)C2)cc1C1=NCC(C)(C)O1 [Compound 68]
stdin: Rank entries according to their AC1.4, from the largest number down. Returns: the labels arranged in the requested order.
stdout: A, B, C
(A: 0.6294 µM, B: 0.3886 µM, C: 0.1213 µM)
